# Protocol summary: Human HepG2 cell viability assay in 384 well format
# Format: toxicity, cell-based
# Set-up: dose 125 nL, time 70.5 hour; concentration not given beside the values
# Conditions: HepG2 cells, read-out: Inhibition
Quantity name: cytotoxicity at 70.5 h (%)

{"Molecule": "CC(C)C[C@H](N)COc1cccc(F)c1Oc1cccc(Cl)c1", "Experimental result": 26.3}
{"Molecule": "CCCC(=O)NCc1cc(Br)c(OC)c(OC)c1", "Experimental result": -6.96}
{"Molecule": "O=C(NCc1ccncc1)N1CCSCC1c1ccc(Cl)cc1 (stereo unspecified)", "Experimental result": 3.04}
{"Molecule": "COc1ccc(C(C)NCc2cccs2)cc1Cn1cccn1 (stereo unspecified)", "Experimental result": 15.6}
{"Molecule": "Cc1cc(C)n(CC2CN(Cc3ccccn3)CCO2)n1 (stereo unspecified)", "Experimental result": 1.96}
{"Molecule": "CN(Cc1cccc(F)c1)C(=O)c1cc2c([nH]c1=O)CCCC2=O", "Experimental result": 2.65}
